Below is a list of entries, each paired with its recorded relative binding affinity (RBA) value.
Test system: Monoclonal antibody (mAb) 2E2
Assay: Binding affinity against human monoclonal antibody (mAb) 2E2 relative to cocaine by ELISA method.
property_label: relative binding affinity (RBA)

>>> df
                                   molecule                   property_label  reading
0  C[N+]1(C)[C@@H]2C[C@@H](OC(=O)[C@H](CO)c3ccccc3)C[C@H]1[C@@H]1O[C@@H]12  relative binding affinity (RBA)     5900
1  CN1[C@@H]2C[C@@H](OC(=O)[C@H](CO)c3ccccc3)C[C@H]1[C@@H]1O[C@H]12  relative binding affinity (RBA)    49000
2  COC(=O)[C@@H]1C2CCC(C[C@@H]1OC(=O)c1ccccc1)N2 (stereo not given in full)  relative binding affinity (RBA)      4.3
3  COC(=O)C1C2CC[C@H](C[C@@H]1c1ccc(Cl)cc1)N2C (stereo not given in full)  relative binding affinity (RBA)      9.3
4  CCOC(=O)[C@@H]1C2CCC(C[C@@H]1OC(=O)c1ccccc1)N2C (stereo not given in full) [COCAETHYLENE]  relative binding affinity (RBA)     0.74
5  COC(=O)[C@H]1C2CCC(C[C@@H]1OC(=O)c1ccccc1)N2 (stereo in doubt; 36)  relative binding affinity (RBA)     1100
6  CCCOC(=O)[C@@H]1C2CCC(C[C@@H]1OC(=O)c1ccccc1)N2C (stereo not given in full)  relative binding affinity (RBA)     0.23
7  COC(=O)[C@H]1[C@@H](c2ccc(F)cc2)C[C@H]2CC[C@H]1N2C  relative binding affinity (RBA)       19
8  CN(C)C(=O)[C@@H]1C2CCC(C[C@@H]1OC(=O)c1ccccc1)N2C (stereo not given in full)  relative binding affinity (RBA)      7.4
9  CN1C2CC(OC(=O)[C@](O)(CO)c3ccccc3)CC1C1OC12 (stereo not given in full)  relative binding affinity (RBA)    59000

====

Test system: Monoclonal antibody (mAb) 2E2
Test: Relative binding affinity against human monoclonal antibody (mAb) 2E2 compared to cocaine
Below is a list of entries, each paired with its recorded relative binding affinity (RBA) value.
property_label: relative binding affinity (RBA)

>>> df
                                   compound  reading
0  CN1C2CCC1[C@@H](C(=O)O)[C@@H](O)C2 (some centres undefined)    28000
1  CN1C2CCC1[C@@H](C(=O)O)[C@@H](OC(=O)c1ccccc1)C2 (some centres undefined)       12
2  CCOC(=O)[C@@H]1C2CCC(C[C@@H]1OC(=O)c1ccccc1)N2C (some centres undefined)     0.97
3  COC(=O)[C@@H]1C2CCC(C[C@@H]1O)N2C (some centres undefined)     1500

====

Target: Monoclonal antibody (mAb) 2E2
Test: Relative binding affinity against human monoclonal antibody 2E2 compared to [3H]cocaine
Below is a list of entries, each paired with its recorded Ki value.
property_label: Ki (nM)

>>> df
                                   molecule  units_symbol  reading
0  COC(=O)[C@@H]1C2CCC(C[C@@H]1O)N2C (some centres undefined)            nM     5200
1  CCOC(=O)[C@@H]1C2CCC(C[C@@H]1OC(=O)c1ccccc1)N2C (some centres undefined)            nM      3.4
2  CN1C2CCC1[C@@H](C(=O)O)[C@@H](O)C2 (some centres undefined)            nM    95000
3  CN1C2CCC1[C@@H](C(=O)O)[C@@H](OC(=O)c1ccccc1)C2 (some centres undefined)            nM       43

The reported numbers originate from ChEMBL document CHEMBL1139455.
